Biological target: androgen receptor LBD (Panvera) (Rattus norvegicus, UniProt P15207)
Construct: 5 pmol androgen receptor LBD (Panvera); purchased Panvera
Sequence (P15207 651-882 limits assumed): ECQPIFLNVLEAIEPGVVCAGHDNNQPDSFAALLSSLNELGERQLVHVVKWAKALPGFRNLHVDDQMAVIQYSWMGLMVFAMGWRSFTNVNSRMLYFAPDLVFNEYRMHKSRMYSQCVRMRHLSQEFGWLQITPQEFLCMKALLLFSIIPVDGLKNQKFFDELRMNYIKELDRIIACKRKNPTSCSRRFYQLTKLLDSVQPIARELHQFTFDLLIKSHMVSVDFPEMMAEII
Assay: Androgen Receptor Filtration Binding Assay (PANVERA)
Details: Androgen Receptor Binding (Panvera); 0.5 nM [3H] R1881 tracer
log10 of IC50 values by entry
Note the log scale: values are log10 of IC50 expressed in µM.

Here's what some known entries look like.
>  <compound>
O=C(c1ccc(Cl)cc1)N1CCC(O)(c2cc3cc(Cl)c(C(F)(F)F)cc3[nH]2)CC1

>  <recorded number>
0.94

$$$$
>  <compound>
CC(O)(Sc1ccc(Cl)cc1)c1cc2cc([N+](=O)[O-])c(C(F)(F)F)cc2[nH]1 (racemic)

>  <recorded number>
-0.04

$$$$
>  <compound>
CC(O)(Sc1ccc(Cl)cc1)c1cc2cc(C#N)c(C(F)(F)F)cc2[nH]1 (racemic)

>  <recorded number>
0.16

$$$$
>  <compound>
CC(O)(Sc1ccccc1)c1cc2cc([N+](=O)[O-])c(C(F)(F)F)cc2[nH]1 (racemic)

>  <recorded number>
0.39

$$$$
>  <compound>
CC(O)(COC(=O)c1ccc(Cl)cc1)c1cc2cc(Cl)c(C(F)(F)F)cc2[nH]1 (centres unmarked)

>  <recorded number>
-0.49

$$$$

Suppose we examine the compound CC(O)(SC1CCCCC1)c1cc2cc(C#N)c(C(F)(F)F)cc2[nH]1 (racemic) ; what log10 of IC50 value has been reported?
0.71

Suppose we examine the compound CC(O)(CSC1CCCCC1)c1cc2nc(C(F)(F)F)ccc2[nH]1 (racemic) ; what log10 of IC50 value has been reported?
1.15

Suppose we examine the compound CS(=O)(=O)n1c(C2(O)CCNCC2)cc2cc(Cl)c(C(F)(F)F)cc21 ; what log10 of IC50 value has been reported?
1.73

Suppose we examine the compound CC(O)(CSc1ccc(F)cc1)c1cc2cc(Cl)c(C(F)(F)F)cc2[nH]1 (centres unmarked) ; what log10 of IC50 value has been reported?
-0.80

Suppose we examine the compound CC(O)(SC1CCCCC1)c1cc2cc([N+](=O)[O-])c(C(F)(F)F)cc2[nH]1 (racemic) ; what log10 of IC50 value has been reported?
0.42
